- Test Details: Pharmacokinetics in uninfected mice
- Assay type: in vivo, mouse
- Conditions Used: male, CD-1, mouse, plasma; 13.4 mg/kg oral; read-out: oral clearance (Cl/F) (converted)
Assay Endpoint: CL/F (mL/min/kg)
Report only the number, with the unit mL/min/kg understood.

Record `CC1(C)OB(O)c2cc(NC(=O)c3ccc(F)cc3C(F)(F)F)ccc21` . Reported CL/F: 2.72

###

- Test Details: Pharmacokinetics in uninfected mice
- Assay type: in vivo, mouse
- Conditions Used: male, CD-1, mouse, plasma; 4.3 mg/kg intravenous; read-out: systemic clearance (CL) (converted)
Assay Endpoint: clearance (mL/min/kg)
Report only the number, with the unit mL/min/kg understood.

Record `CC1(C)OB(O)c2cc(NC(=O)c3ccc(F)cc3C(F)(F)F)ccc21` . Reported clearance: 1.48

###

- Test Details: Pharmacokinetics in cynomolgus monkeys
- Assay type: in vivo, cynomolgus monkey
- Conditions Used: male, cynomolgus monkey, plasma, po; 10 mg/kg NG; read-out: absolute oral bioavailability
Assay Endpoint: bioavailability (%)
Report only the number, with the unit % understood.

Record `CC1(C)OB(O)c2cc(NC(=O)c3ccc(F)cc3C(F)(F)F)ccc21` . Reported bioavailability: 89

###

- Test Details: Pharmacokinetics in cynomolgus monkeys
- Format: in vivo, cynomolgus monkey
- Conditions Used: male, cynomolgus monkey; 2 mg/kg IV, plasma
Assay Endpoint: AUC(0-inf) (ng·h/mL)
Report only the number, with the unit ng·h/mL understood.

Record `CC1(C)OB(O)c2cc(NC(=O)c3ccc(F)cc3C(F)(F)F)ccc21` . Reported AUC(0-inf): 94400

###

- System Under Test: UniProtKB P11712
- Sequence (P11712 whole entry): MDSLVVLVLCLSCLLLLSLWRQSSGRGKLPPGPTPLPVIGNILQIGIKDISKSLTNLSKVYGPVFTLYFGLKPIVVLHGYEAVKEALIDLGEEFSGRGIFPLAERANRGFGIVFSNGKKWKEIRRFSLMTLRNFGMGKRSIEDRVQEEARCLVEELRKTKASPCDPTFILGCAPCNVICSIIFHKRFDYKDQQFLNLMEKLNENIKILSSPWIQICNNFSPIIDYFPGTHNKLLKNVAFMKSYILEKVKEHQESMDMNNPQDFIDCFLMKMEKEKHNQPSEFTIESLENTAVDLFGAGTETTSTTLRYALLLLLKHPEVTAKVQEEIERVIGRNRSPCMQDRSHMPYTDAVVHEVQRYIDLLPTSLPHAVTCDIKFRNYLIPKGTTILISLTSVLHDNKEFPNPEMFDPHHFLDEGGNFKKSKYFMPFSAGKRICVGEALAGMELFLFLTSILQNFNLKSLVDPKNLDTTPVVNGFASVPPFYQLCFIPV
- Test Details: P450-Glo cytochrome P450 inhibition
- Conditions Used: human recombinant CYP2C9
Assay Endpoint: IC50 (µM)
Report only the number, with the unit µM understood.

Record `CC1(C)OB(O)c2cc(NC(=O)c3ccc(F)cc3C(F)(F)F)ccc21` . Reported IC50: 23.5

###

- Test Details: Pharmacokinetics in cynomolgus monkeys
- Format: in vivo, cynomolgus monkey
- Conditions Used: male, cynomolgus monkey, CSF/plasma; at each time point; read-out: CSF concentration as % of the plasma concentration
Assay Endpoint: Kp

Record CC1(C)OB(O)c2cc(NC(=O)c3ccc(F)cc3C(F)(F)F)ccc21 [SCYX-7158] . Reported Kp: ~0.05

###

- Test Details: Pharmacokinetics in cynomolgus monkeys
- Format: in vivo, cynomolgus monkey
- Conditions Used: male, cynomolgus monkey, oral; 10 mg/kg SCYX-7158 NG, plasma
Assay Endpoint: AUC(0-inf) (µg·h/mL)
Report only the number, with the unit µg·h/mL understood.

{"columns": ["Test Smiles", "AUC(0-inf) (µg·h/mL)"],
 "data": [
  ["CC1(C)OB(O)c2cc(NC(=O)c3ccc(F)cc3C(F)(F)F)ccc21", 460]
]}

Now turn to the next molecule.
Record `CC(C)(O)c1ccc(NC(=O)c2ccc(F)cc2C(F)(F)F)cc1O` . Reported AUC(0-inf): 6.4

###

- System Under Test: CYP2D6 (Homo sapiens, UniProt P10635)
- Sequence (P10635 whole entry): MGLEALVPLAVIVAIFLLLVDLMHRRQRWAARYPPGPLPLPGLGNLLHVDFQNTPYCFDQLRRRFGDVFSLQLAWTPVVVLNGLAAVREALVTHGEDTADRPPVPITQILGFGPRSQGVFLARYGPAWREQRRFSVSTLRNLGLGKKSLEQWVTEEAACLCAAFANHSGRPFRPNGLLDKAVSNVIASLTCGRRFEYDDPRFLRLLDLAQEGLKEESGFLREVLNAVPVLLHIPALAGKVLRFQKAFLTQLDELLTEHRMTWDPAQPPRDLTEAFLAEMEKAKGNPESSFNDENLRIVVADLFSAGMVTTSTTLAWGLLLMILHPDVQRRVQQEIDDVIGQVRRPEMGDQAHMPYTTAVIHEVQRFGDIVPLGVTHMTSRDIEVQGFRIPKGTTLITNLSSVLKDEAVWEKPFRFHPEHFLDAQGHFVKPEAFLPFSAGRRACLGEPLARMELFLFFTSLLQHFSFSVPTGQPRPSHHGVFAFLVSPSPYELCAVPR
- Test Details: P450-Glo cytochrome P450 inhibition
- Conditions Used: human recombinant CYP2D6
Assay Endpoint: IC50 (µM)
Report only the number, with the unit µM understood.

Record `CC1(C)OB(O)c2cc(NC(=O)c3ccc(F)cc3C(F)(F)F)ccc21` . Reported IC50: 21.1
